Each entry below carries its recorded Size (d, nm).
# assay: Dimensions (size, PDI) of DNPs co-assembled from IAJDs and Luc-mRNA by DLS
# Format: physicochemical
# assayContext: Table 13; DNPs, IAJD 4 mg/mL + Luc-mRNA 0.10 mg/mL, acetate buffer pH 4.0
# Description: Dynamic Light Scattering (DLS) for the DNPs was performed in buffer with a Malvern Instruments particle sizer (Zetasizer Nano S, Malvern Instruments, UK) equipped with 4 mW He—Ne laser 633 nm and avalanche photodiode positioned at […] to the beam and temperature-controlled cuvette holder. Instrument parameters were determined automatically along with measurement times. Formulation of DNPs Containing mRNA-Luc: IAJDs were dissolved in ethanol with various initial concentrations (5-160 mg/mL). […]
Answer format: numeric, nm implied, no suffix.

Challenge: Entry CCCCCCCCCCCCOc1ccc(COC(=O)CCCN2CCN(C)CC2)cc1OCCCCCCCCCCCC [IAJD 78] has what Size (d, nm)?
Response given: 629

----------
# Tested on: lung
# assay: In vivo mRNA delivery, IVIS imaging of organs: lung
# Parameters: species or system mice; key: lung: strong: Strong meant the luminescence intensity in that organ was relatively high, compared to other organs; weak: Weak meant the luminescence intensity in that organ was relatively low, compared to other organs
# assayContext: Table 17; mice, IVIS, 4-6 h after injection; intensity relative to other organs
measurementName: Organs with luminescence: lung

[
  {
    "compound": "CCCCCCCCCCCCOc1cc(COC(=O)CCCN2CCN(CCO)CC2)cc(OCCCCCCCCCCCC)c1",
    "result": "Lung (weak),"
  },
  {
    "compound": "CCCCCCCCCCCCOc1cc(COC(=O)CCCN2CCN(CCO)CC2)cc(OCCCCCCCCCCC)c1",
    "result": "Lung (weak),"
  },
  {
    "compound": "CCCCCCCCCCCCCCCCCOc1cc(COC(=O)c2cc(OCCOCCOCCCC(=O)CCCN3CCCCC3)c(OCCOCCOCCOCc3ccccc3)c(OCCOCCOCCOC(=O)CCCN3CCCCC3)c2)cc(OCCCCCCCCCCC)c1",
    "result": "Lung (strong)"
  },
  {
    "compound": "CCCCCCCCCCCCCOc1cc(COC(=O)CCCN2CCN(C)CC2)cc(OCCCCCCCCCCC)c1",
    "result": "Lung (weak),"
  },
  {
    "compound": "CCCCCCCCCCCCCCCOc1cc(COC(=O)CCCN2CCN(C)CC2)cc(OCCCCCCCCCCCCCC)c1",
    "result": "Lung (weak),"
  }
]

Challenge: Item under review: CCCCCCCCCCCCCCCOc1cc(COC(=O)CCCN2CCN(C)CC2)cc(OCC(CC)CCCC)c1 (stereo not drawn) . Reported Organs with luminescence: lung?
Response given: Lung (weak),

Challenge: Look at this compound and give its reported Organs with luminescence: lung. CCCCCCCCCCCCCCCCCOc1cc(COC(=O)CCCN2CCN(C)CC2)cc(OCCCCCCCCCCC)c1
Response given: Lung (weak),

Challenge: Please look up its Organs with luminescence: lung: CCCCCCCCCCCCCCCCCOc1cc(COC(=O)CCCN2CCN(C)CC2)cc(OCCCCCCCCCCCCCCC)c1
Response given: Lung (weak),

Challenge: Entry CCCCCCCCCCCCCCCCCOc1cc(CNC(=O)c2cc(OCCOCCOCCOC(=O)CCCN3CCCCC3)c(OCCCOCOCCOCc3ccccc3)c(OCCOCCOCCOC(=O)CCCN3CCCCC3)c2)cc(OCCCCCCCCCCCCCCCCC)c1 has what Organs with luminescence: lung?
Response given: Lung (strong)
